- target-entity: Carbonic anhydrase 2 (Homo sapiens)
property-label: pKi
Here pKi is given on a logarithmic scale as minus log10 of the concentration in mol/L.

Task: Missing value: pKi, Carbonic anhydrase 2 (Homo sapiens), entry Cc1cc(=O)oc2cc(OS(N)(=O)=O)ccc12 . Fill in?
Result: 7.60

----------
- target-entity: UniProtKB Q16790
property-label: pKi
Here pKi is given on a logarithmic scale as minus log10 of the concentration in mol/L.

The cases that follow already have their pKi on record.
{"molecule": "NS(=O)(=O)Cc1ccccc1 [PHENYLMETHANESULFONAMIDE]", "obs-value": 5.03}
{"molecule": "NS(=O)(=O)C(F)(F)c1ccc(Br)cc1", "obs-value": 5.11}
{"molecule": "NS(=O)(=O)C(F)(F)c1ccccc1Br", "obs-value": 5.03}

Task: Tell me the measured pKi of Cc1cc(=O)oc2cc(CS(N)(=O)=O)ccc12 , please.
Result: 6.62

Task: Tell me the measured pKi of NS(=O)(=O)C(F)(F)c1ccccc1 [PHENYLDIFLUOROMETHANESULFONAMIDE] , please.
Result: 5.07

Taken from ChEMBL document CHEMBL1141209.
